TEST TARGET: Voltage-gated inwardly rectifying potassium channel KCNH2 (Homo sapiens) (UniProt Q12809)
Sequence (Q12809 whole entry, looked up): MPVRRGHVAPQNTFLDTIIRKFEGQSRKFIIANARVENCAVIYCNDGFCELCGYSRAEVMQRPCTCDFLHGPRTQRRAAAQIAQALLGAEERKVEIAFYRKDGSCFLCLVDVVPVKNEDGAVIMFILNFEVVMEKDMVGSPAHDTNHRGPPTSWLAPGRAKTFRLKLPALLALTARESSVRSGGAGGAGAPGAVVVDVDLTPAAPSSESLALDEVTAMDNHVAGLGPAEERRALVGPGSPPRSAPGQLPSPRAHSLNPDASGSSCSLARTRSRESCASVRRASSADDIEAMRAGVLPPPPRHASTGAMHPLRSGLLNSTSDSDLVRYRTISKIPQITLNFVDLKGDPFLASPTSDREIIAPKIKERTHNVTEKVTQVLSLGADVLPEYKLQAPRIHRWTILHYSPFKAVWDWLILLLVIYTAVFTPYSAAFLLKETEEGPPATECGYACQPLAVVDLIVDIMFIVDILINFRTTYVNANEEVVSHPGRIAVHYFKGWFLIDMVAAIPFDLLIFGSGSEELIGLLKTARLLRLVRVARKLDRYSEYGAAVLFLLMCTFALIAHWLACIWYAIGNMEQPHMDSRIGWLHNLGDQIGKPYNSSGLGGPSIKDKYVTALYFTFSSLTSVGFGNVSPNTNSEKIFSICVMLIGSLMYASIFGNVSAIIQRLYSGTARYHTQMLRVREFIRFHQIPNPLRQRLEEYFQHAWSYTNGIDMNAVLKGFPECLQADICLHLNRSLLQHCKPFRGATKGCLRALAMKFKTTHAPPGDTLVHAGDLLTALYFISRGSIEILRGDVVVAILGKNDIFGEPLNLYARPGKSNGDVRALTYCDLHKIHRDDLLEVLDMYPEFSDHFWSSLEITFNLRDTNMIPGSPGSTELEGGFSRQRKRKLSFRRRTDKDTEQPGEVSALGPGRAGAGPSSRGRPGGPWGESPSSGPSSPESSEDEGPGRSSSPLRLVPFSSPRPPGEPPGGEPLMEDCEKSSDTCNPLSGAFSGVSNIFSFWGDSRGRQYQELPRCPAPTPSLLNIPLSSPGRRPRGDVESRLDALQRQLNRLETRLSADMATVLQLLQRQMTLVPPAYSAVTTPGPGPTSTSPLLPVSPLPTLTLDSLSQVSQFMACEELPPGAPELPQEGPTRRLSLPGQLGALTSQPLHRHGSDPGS
ASSAY DETAILS: hERG protection against dofetilide inhibition, confirmation, cell-based, thallium flux, duplicate retest, dofetilide IC70 (AID 1835)
STUDY CONDITIONS: hERG cell line, FluxOR thallium flux, dofetilide-blocked; at 10 µM
Among all 2,400 compounds or so, about 750 (31%) were called active.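 How the source made its calls: active means median signal gain over dofetilide-blocked control wells reaching their mean plus 3 SD, so readout 1 at least 0; inactive means the rest.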 Some of the results follow.
Respond only with the outcome that fits, drawn from Yes (active), No (inactive)

Solved cases below.
>  <MOLECULE>
CCc1ccc(C(=O)CSc2nc3ccccc3c(=O)[nH]2)cc1

>  <CATEGORY LABEL>
No

$$$$
>  <MOLECULE>
CCCCOC(=O)Cn1c2ccc(OC)cc2c2nc3ccccc3nc21

>  <CATEGORY LABEL>
No

$$$$
>  <MOLECULE>
O=C(NC(=S)Nc1ccccc1)c1cccs1

>  <CATEGORY LABEL>
Yes

$$$$
>  <MOLECULE>
O=c1[nH]c(C(Cl)(Cl)Cl)nc2ccc3ccccc3c12

>  <CATEGORY LABEL>
Yes

$$$$
>  <MOLECULE>
O=C(NC(=S)NNC(=O)c1cccs1)c1ccc(Br)o1

>  <CATEGORY LABEL>
No

$$$$
>  <MOLECULE>
c1ccc2oc(-c3ccn[nH]3)cc2c1

>  <CATEGORY LABEL>
No

$$$$
>  <MOLECULE>
NS(=O)(=O)c1ccc(NC(=S)NCc2cccs2)cc1

>  <CATEGORY LABEL>
No

$$$$
>  <MOLECULE>
COc1cc(/C=C2/C(=O)NN(c3ccccc3)C2=O)cc(Br)c1O

>  <CATEGORY LABEL>
No

$$$$

Q. Outcome? `COc1ccc(S(=O)(=O)n2nc(C)c(S(=O)(=O)N3CCOCC3)c2C)cc1OC`
A. No

Q. Outcome? `CC[C@@H](C(=O)[C@@H](C)[C@@H](O)[C@H](C)CCc1ccc(C)c(O)c1C(=O)O)[C@H]1O[C@](CC)([C@H]2CC[C@](O)(CC)[C@H](C)O2)C[C@@H]1C`
A. Yes

Q. Outcome? `O=C(NC(=S)NCc1ccccc1)c1cccs1`
A. Yes

Q. Outcome? `NC(=O)c1nsc(C(=O)N(CC(=O)NCc2ccccc2)c2ccc(F)cc2)c1N`
A. No

Q. Outcome? `CCCCOC(=O)Nc1nnc(C(C)C)s1`
A. No

---

TEST TARGET: Voltage-gated inwardly rectifying potassium channel KCNH2 (Homo sapiens) (UniProt Q12809)
ASSAY DETAILS: hERG protection against dofetilide inhibition, confirmation, cell-based, thallium flux, duplicate retest, dofetilide IC70 (AID 1835)
STUDY CONDITIONS: hERG cell line, FluxOR thallium flux, dofetilide-blocked; at 10 µM
The whole screen tested about 2,400 compounds, of which about 750 (31%) were called active.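 The calls were made as follows: active = median signal gain over dofetilide-blocked control wells reaching their mean plus 3 SD, so readout 1 at least 0; inactive = the rest.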 The list shows a part of the results.
Respond only with the outcome that fits, drawn from 1.0 (active), 0.0 (inactive)

Solved cases below.
>  <COMPOUND>
NC(=O)C1CCN(C(=O)CCC(=O)c2ccc(F)cc2)CC1

>  <CATEGORY LABEL>
0.0

$$$$
>  <COMPOUND>
CC1=NNC(=O)C1CC(=O)N/N=C/C=C/c1ccccc1 (configuration not stated)

>  <CATEGORY LABEL>
0.0

$$$$
>  <COMPOUND>
CCOc1ccc2nc(/N=C/c3c(C)[nH]n(-c4ccccc4)c3=O)sc2c1

>  <CATEGORY LABEL>
1.0

$$$$
>  <COMPOUND>
CCN1C(=O)C2(/C(=C(\O)c3ccc4c(c3)OCCO4)C(=O)C(=O)N2CCCOC)c2ccccc21 (configuration not stated)

>  <CATEGORY LABEL>
0.0

$$$$
>  <COMPOUND>
CCOc1ccc(-n2cnc3sc(C)c(C)c3c2=O)cc1

>  <CATEGORY LABEL>
0.0

$$$$

Q. Outcome? `CC(C)(C)c1cc(-c2n[nH]c(=S)n2-c2ccccc2F)n[nH]1`
A. 1.0

Q. Outcome? Cc1ccc(CNC(=O)CN(C(=O)C2(C)CC(=O)N=C3C=CC=CN32)c2ccccc2F)cc1 (configuration not stated)
A. 0.0

Q. Outcome? Cc1nc(NCc2cccnc2)c2c3c(sc2n1)CC(C)CC3 (configuration not stated)
A. 1.0

Q. Outcome? `CC1CCN(c2ccc3c(c2)S(=O)(=O)c2ccccc2C3=O)CC1`
A. 0.0

Q. Outcome? `O=C(CCSc1ccc(Br)cc1)c1ccc(O)cc1`
A. 1.0

Q. Outcome? `CCSC(=S)c1c(C)[nH]n(-c2ccccc2)c1=O`
A. 0.0

Q. Outcome? `O=C(N/N=C/c1ccccc1[N+](=O)[O-])c1ccc(CN2CCOCC2)cc1`
A. 0.0

Q. Outcome? `CCc1nnc(NS(=O)(=O)c2ccc(NC(=S)NC(=O)/C=C/c3ccc(OC)cc3)cc2)s1`
A. 0.0

Q. Outcome? Cc1ccc(C)c(NC(=S)NNC(=O)c2csc3c2CCC(C)C3)c1 (configuration not stated)
A. 1.0

Q. Outcome? COC(=O)c1ccc(NC(=O)COC(=O)C2CC(=O)N(Cc3ccccc3)C2)cc1 (configuration not stated)
A. 0.0

Q. Outcome? `CC1=CCC[C@@H]2[C@@](C)(CC/C(C)=C/C(=O)O)[C@H](C)CC[C@@]12C`
A. 1.0

Q. Outcome? `CCCSc1cc(NCCOC(C)=O)c([N+](=O)[O-])c2nonc12`
A. 0.0

---

TEST TARGET: Voltage-gated inwardly rectifying potassium channel KCNH2 (Homo sapiens)
ASSAY DETAILS: hERG protection against dofetilide inhibition, confirmation, cell-based, thallium flux, duplicate retest, dofetilide IC70 (AID 1835)
STUDY CONDITIONS: hERG cell line, FluxOR thallium flux, dofetilide-blocked; at 10 µM; hits give high values
Among all 2,400 compounds or so, about 750 (31%) were called active. Some of the results follow.
Each record here notes measured activity increase over dofetilide control, less the hit threshold.
# output: bare number, implied unit %

Completed entries (count: 5):
>  <SMILES RECORD>
S=c1[nH]nc(-c2ccccc2)n1/N=C/c1ccc(-c2ccccc2Cl)o1

>  <TEST TARGET>
Voltage-gated inwardly rectifying potassium channel KCNH2 (Homo sapiens)

>  <UNITS>
%

>  <RECORDED MEASUREMENT>
-4

$$$$
>  <SMILES RECORD>
O=C(COc1ccc(Br)cc1Br)NC(=S)N1CCCc2ccccc21

>  <TEST TARGET>
Voltage-gated inwardly rectifying potassium channel KCNH2 (Homo sapiens)

>  <UNITS>
%

>  <RECORDED MEASUREMENT>
6

$$$$
>  <SMILES RECORD>
S=c1[nH]nc(-c2cccs2)n1/N=C/c1c(Cl)cccc1Cl

>  <TEST TARGET>
Voltage-gated inwardly rectifying potassium channel KCNH2 (Homo sapiens)

>  <UNITS>
%

>  <RECORDED MEASUREMENT>
4

$$$$
>  <SMILES RECORD>
CC(C)c1ccc(OCC(=O)NN2C(=O)c3ccccc3C2=O)c(Br)c1

>  <TEST TARGET>
Voltage-gated inwardly rectifying potassium channel KCNH2 (Homo sapiens)

>  <UNITS>
%

>  <RECORDED MEASUREMENT>
-17

$$$$
>  <SMILES RECORD>
CCCOc1ccc(C(=O)NNC(=S)NC(=O)c2ccco2)cc1

>  <TEST TARGET>
Voltage-gated inwardly rectifying potassium channel KCNH2 (Homo sapiens)

>  <UNITS>
%

>  <RECORDED MEASUREMENT>
-41

$$$$

Attention now turns to another entry.
Q. Given the entry `Cn1ncc2c(NNC(=O)Cc3ccccc3)ncnc21` , report its measured activity increase over dofetilide control, less the hit threshold.
A. -13

---

TEST TARGET: Voltage-gated inwardly rectifying potassium channel KCNH2 (Homo sapiens)
ASSAY DETAILS: hERG protection against dofetilide inhibition, confirmation, cell-based, thallium flux, duplicate retest, dofetilide IC70 (AID 1835)
STUDY CONDITIONS: hERG cell line, FluxOR thallium flux, dofetilide-blocked; at 10 µM; hits give high values
Screen size: about 2,400 compounds; about 750 (31%) were called active. The list shows a part of the results.
Please note: Fulfilled applies when activity increase over dofetilide control, less the hit threshold is -10% or greater, and Not fulfilled applies otherwise.

Solved cases below.
>  <COMPOUND>
CCOC(=O)c1sc(NC(=S)NC(=O)c2ccc(OC)cc2)nc1C

>  <CATEGORY LABEL>
Fulfilled

$$$$
>  <COMPOUND>
O=C(O)CCCn1cc(NC(=O)COc2ccc(F)cc2)cn1

>  <CATEGORY LABEL>
Not fulfilled

$$$$
>  <COMPOUND>
O=C(O)c1cc(-c2cccc([N+](=O)[O-])c2)n[nH]1

>  <CATEGORY LABEL>
Not fulfilled

$$$$
>  <COMPOUND>
CC(C)c1ccc(/C=N/n2c(COc3ccccc3)n[nH]c2=S)cc1

>  <CATEGORY LABEL>
Fulfilled

$$$$
>  <COMPOUND>
S=c1[nH]nc(Cc2ccc(Br)cc2)n1/N=C/c1ccc(Cl)cc1

>  <CATEGORY LABEL>
Fulfilled

$$$$
>  <COMPOUND>
CCOC(=O)c1c(NC(=S)NC)sc2c1CC(C)(C)SC2

>  <CATEGORY LABEL>
Fulfilled

$$$$
>  <COMPOUND>
COc1ccc(Cc2c(O)nc(SCC(C)C)[nH]c2=O)cc1

>  <CATEGORY LABEL>
Not fulfilled

$$$$
>  <COMPOUND>
COc1cccc(OC)c1OCCOCCN1CCN(C)CC1

>  <CATEGORY LABEL>
Not fulfilled

$$$$

We next turn to a different compound, shown below.
Q. Form field: activity increase over dofetilide control, less the hit threshold at least -10%? Entry: `Cc1nnc(NC(=O)CN2CCN(Cc3ccc(F)cc3Cl)CC2)s1`
A. Not fulfilled
